- Test system: panicum, fall (fall panicum, Panicum dichotomiflorum)
- experiment_description: Test E greenhouse herbicide test, pre- and postemergence
- Type: in vivo
- assay_conditions: Preemergence, 250 g ai/ha; visual, scale 0 no effect to 100 complete control
# maps each entry to its Plant response rating, Panicum, Fall
When you answer, write just the number.

Below, each entry is followed by its recorded Plant response rating, Panicum, Fall result.
compound	measurement_name	quantitative_result
CCOC(=O)Oc1c(C)nn(C)c(=O)c1-c1c(C)sc2c(C)cc(C)cc12 [Compound 83]	Plant response rating, Panicum, Fall	98
CC(=O)Oc1c(C)nn(C)c(=O)c1-c1c(C)cc(C)c2ccccc12 [Compound 153]	Plant response rating, Panicum, Fall	100

q: Returns the measured Plant response rating, Panicum, Fall for the input compound. Input: COC(=O)Oc1c(C)nn(C)c(=O)c1-c1c(C)sc2c(C)cc(C)cc12 [Compound 81]
a: 100

q: Param item = CCC(=O)Oc1c(C)nn(C)c(=O)c1-c1c(C)sc2c(C)cc(C)cc12 [Compound 28] ; retrieve measured Plant response rating, Panicum, Fall.
a: 100

q: Entry CCOC(=O)Oc1c(C)nn(C)c(=O)c1-c1c(CC)ccc2ccccc12 [Compound 37] : reported Plant response rating, Panicum, Fall = ?
a: 100
